- Test system: OVCAR-8
- PROCEDURE SUMMARY: NCI tumour cell line growth inhibition, 48 h
Active and inactive are the calls of the source. No stated cut-off is given here; in the data, active = GI50 up to about 1.1 µM and inactive = higher.
MEASUREMENT NAME: GI50

Solved entries:
Data point: Cc1nc(C)c(C(=O)NNC(=O)c2ccccc2)cc1C(=O)NNC(=O)c1ccccc1 ; GI50 = > 100 µM (inactive)

Data point: CC(C)/C=N\n1c(N)c(C#N)c(C#N)c1C(C)C ; GI50 = 20.3 µM (inactive)

// below: GI50 requested for another compound
Data point: CC12CCCC(C#N)(C1)OC2=O (stereo not drawn) ; GI50 = > 100 µM (inactive)

* * *

- Test system: LOX IMVI
- PROCEDURE SUMMARY: NCI tumour cell line growth inhibition, 48 h
The source made the active and inactive calls. No stated cut-off is given here; in the data, active = GI50 up to about 1.1 µM and inactive = higher.
# valid calls are TRUE (active), FALSE (inactive); nothing else

Give the logged outcome of this assay for the following compound: S=C1SSC2N=CC=CC12 (stereo not given)
FALSE

Give the logged outcome of this assay for the following compound: NCCC1CN(C(=O)OCc2ccccc2)c2ccccc21 (stereo not given)
FALSE
